Tested on: 293T cells
Experiment: Cell survival rate determination (CCK-8)
Assay type: cell-based
Details: difference of survival rates; comparator YK-306
What cell survival rate higher than YK-306 was measured for each of the following?
Numbers only, in %.

CCCCCCCCC(CCCCCCCC)COC(=O)CCCCCN(CCCCCC(=O)OCC(CCCCCCCC)CCCCCCCC)C[C@H](O)CN(C)CCO = 39.99

Below is a list of molecules. For each, state its recorded cell survival rate higher than YK-306.
1. CCCCCCC(CCCCCC)CCOC(=O)CCCCCCN(CCCCCCC(=O)OCCC(CCCCCC)CCCCCC)C[C@H](O)CN(CCO)CCO
2. CCCCCCCCC(CCCCCCCC)COC(=O)CCCCCN(CCCCCC(=O)OCC(CCCCCCCC)CCCCCCCC)C[C@H](O)CN(CC)CCO
3. CCCCCCCCCCCOC(=O)CCCCCN(CCCC(=O)OCCCC(CCCCCCCCCC)CCCCCCCCCC)C[C@H](O)CN(CC)CCO
4. CCCCCCCCC(CCCCCCCC)OC(=O)CCCCCN(CCCCCC(=O)OC(CCCCCCCC)CCCCCCCC)C[C@H](O)CN(CCO)CCO

[33.02, 34.77, 39.91, 33.37]

====

Experiment: Particle size and polydispersity index (PDI) of lipid nanoparticles by dynamic light scattering
Assay type: physicochemical
Details: LNP formulation prepared from the cationic lipid, 25° C.
What PDI (%) was measured for each of the following?
Answers are plain numbers, in %.

CCCCCCC(CCCCCC)CCOC(=O)CCCCCCCN(CCO)CCCCCCCC(=O)OCCC(CCCCCC)CCCCCC [Compound 23, reference compound] = 15.2

Below is a list of compounds. For each, state its recorded PDI (%).
1. CCCCCCC(CCCCCC)CCOC(=O)CCCCCN(CCCCCC(=O)OCCC(CCCCCC)CCCCCC)C[C@H](O)CN(CC)CCO
2. CCCCCCCCCCCOC(=O)CCCCCN(CCCC(=O)OCCCC(CCCCCCCCCC)CCCCCCCCCC)C[C@H](O)CN(CC)CCO
3. CCCCCCCCC(CCCCCC)C(=O)OCCCCCCN(CCCCO)CCCCCCOC(=O)C(CCCCCC)CCCCCCCC (centres unmarked) [ALC-0315, reference compound]
4. CCCCCCC(CCCCCC)CCOC(=O)CCCCCCN(CCCCCCC(=O)OCCC(CCCCCC)CCCCCC)C[C@H](O)CN(CCO)CCO

1. 31.1
2. 12.4
3. 21.2
4. 11.7

====

Test system: 293T cells
Assay: Cell survival rate determination (CCK-8)
Format: cell-based
Settings: difference of survival rates; comparator Lipofectamine 3000
What cell survival rate higher than Lipofectamine 3000 was measured for each of the following?
Give bare numbers, in %.

Answered cases to consult:
CCCCCCCCC(CCCCCCCC)OC(=O)CCCCCN(CCCCCC(=O)OC(CCCCCCCC)CCCCCCCC)C[C@H](O)CN(CCO)CCO [YK-318] = 50.55
CCCCCCC(CCCCCC)CCOC(=O)CCCCCCN(CCCCCCC(=O)OCCC(CCCCCC)CCCCCC)C[C@H](O)CN(CCO)CCO [YK-319] = 50.20
CCCCCCCCCCCOC(=O)CCCCCN(CCCC(=O)OCCCC(CCCCCCCCCC)CCCCCCCCCC)C[C@H](O)CN(CC)CCO [YK-310] = 57.09
CCCCCCCCC(CCCCCCCC)COC(=O)CCCCCN(CCCCCC(=O)OCC(CCCCCCCC)CCCCCCCC)C[C@H](O)CN(CC)CCO [YK-312] = 51.95

// lookup cell survival rate higher than Lipofectamine 3000 for CCCCCCCCC(CCCCCCCC)COC(=O)CCCCCN(CCCCCC(=O)OCC(CCCCCCCC)CCCCCCCC)C[C@H](O)CN(C)CCO [YK-305] 57.17

====

What average radiation intensity, times that of HHMA was measured for each of the following?
Test system: female BALB/C mice
Assay: Live imaging in mice: protein expression of Fluc-mRNA delivered by LNP formulations
Assay type: in vivo
Conditions: 7 d; comparator HHMA
Answers are plain numbers, in times.

Answered cases to consult:
CCCCCCCCC(CCCCCCCC)COC(=O)CCCCCN(CCCCCC(=O)OCC(CCCCCCCC)CCCCCCCC)C[C@H](O)CN(CC)CCO = 17.97
CCCCCCC(CCCCCC)CCOC(=O)CCCCCCN(CCCCCCC(=O)OCCC(CCCCCC)CCCCCC)C[C@H](O)CN(CCO)CCO = 17.86
CCCCCCCCCCCOC(=O)CCCCCN(CCCC(=O)OCCCC(CCCCCCCCCC)CCCCCCCCCC)C[C@H](O)CN(CC)CCO = 20.01
CCCCCCCCC(CCCCCCCC)COC(=O)CCCCCN(CCCCCC(=O)OCC(CCCCCCCC)CCCCCCCC)C[C@H](O)CN(C)CCO = 21.63

// lookup average radiation intensity, times that of HHMA for CCCCCCCCC(CCCCCCCC)OC(=O)CCCCCN(CCCCCC(=O)OC(CCCCCCCC)CCCCCCCC)C[C@H](O)CN(CCO)CCO 8.63

====

Test system: 293T cells
Experiment: Cell survival rate determination (CCK-8)
Assay type: cell-based
Settings: difference of survival rates; comparator YK-303
experimental_readout: cell survival rate higher than YK-303 (%)
Answers are plain numbers, in %.

Answered cases to consult:
CCCCCCCCCCCOC(=O)CCCCCN(CCCC(=O)OCCCC(CCCCCCCCCC)CCCCCCCCCC)C[C@H](O)CN(CC)CCO [YK-310] = 18.78
CCCCCCC(CCCCCC)CCOC(=O)CCCCCCN(CCCCCCC(=O)OCCC(CCCCCC)CCCCCC)C[C@H](O)CN(CCO)CCO [YK-319] = 11.89
CCCCCCCCC(CCCCCCCC)OC(=O)CCCCCN(CCCCCC(=O)OC(CCCCCCCC)CCCCCCCC)C[C@H](O)CN(CCO)CCO [YK-318] = 12.24
CCCCCCCCC(CCCCCCCC)COC(=O)CCCCCN(CCCCCC(=O)OCC(CCCCCCCC)CCCCCCCC)C[C@H](O)CN(C)CCO [YK-305] = 18.86

Attention now shifts to the item below.
// lookup cell survival rate higher than YK-303 for CCCCCCCCC(CCCCCCCC)COC(=O)CCCCCN(CCCCCC(=O)OCC(CCCCCCCC)CCCCCCCC)C[C@H](O)CN(CC)CCO [YK-312] 13.64

====

What average radiation intensity, times that of compound 21 was measured for each of the following?
System: female BALB/C mice
Experiment: Live imaging in mice: protein expression of Fluc-mRNA delivered by LNP formulations
Assay type: in vivo
Conditions: 7 d; comparator compound 21
Answers are plain numbers, in times.

CCCCCCCCC(CCCCCCCC)COC(=O)CCCCCN(CCCCCC(=O)OCC(CCCCCCCC)CCCCCCCC)C[C@H](O)CN(C)CCO [YK-305] = 19.71
CCCCCCCCC(CCCCCCCC)COC(=O)CCCCCN(CCCCCC(=O)OCC(CCCCCCCC)CCCCCCCC)C[C@H](O)CN(CC)CCO [YK-312] = 16.37
CCCCCCCCCCCOC(=O)CCCCCN(CCCC(=O)OCCCC(CCCCCCCCCC)CCCCCCCCCC)C[C@H](O)CN(CC)CCO [YK-310] = 18.23
CCCCCCC(CCCCCC)CCOC(=O)CCCCCCN(CCCCCCC(=O)OCCC(CCCCCC)CCCCCC)C[C@H](O)CN(CCO)CCO [YK-319] = 16.27

// lookup average radiation intensity, times that of compound 21 for CCCCCCCCC(CCCCCCCC)OC(=O)CCCCCN(CCCCCC(=O)OC(CCCCCCCC)CCCCCCCC)C[C@H](O)CN(CCO)CCO [YK-318] 7.86

====

Tested on: 293T cells
Experiment: Fluorescent detection of Fluc-mRNA (cell transfection efficiency of LNP formulations)
Assay type: cell-based
Conditions: comparator YK-321
experimental_readout: cell transfection efficiency, times that of YK-321 (times)
Answers are plain numbers, in times.

Answered cases to consult:
CCCCCCC(CCCCCC)CCOC(=O)CCCCCCN(CCCCCCC(=O)OCCC(CCCCCC)CCCCCC)C[C@H](O)CN(CCO)CCO = 17.43
CCCCCCCCCCCOC(=O)CCCCCN(CCCC(=O)OCCCC(CCCCCCCCCC)CCCCCCCCCC)C[C@H](O)CN(CC)CCO = 18.38
CCCCCCCCC(CCCCCCCC)COC(=O)CCCCCN(CCCCCC(=O)OCC(CCCCCCCC)CCCCCCCC)C[C@H](O)CN(CC)CCO = 14.36

Attention now shifts to the item below.
// lookup cell transfection efficiency, times that of YK-321 for CCCCCCCCC(CCCCCCCC)OC(=O)CCCCCN(CCCCCC(=O)OC(CCCCCCCC)CCCCCCCC)C[C@H](O)CN(CCO)CCO 7.97
